List of fold induction at 100 µM values.
# MEASURED_TARGET: AsGAR-1 (Ascaris suum)
# ASSAY_REMARKS: cell-based
# ASSAY_SETUP: read-out: yeast functional expression, growth reporter, agonist at 10^-4 M

# COMPOUND, fold induction at 100 µM
data = [
    ("CC(C[N+](C)(C)C)OC(N)=O (stereo not shown)", 7.7),
    ("C[N+](C)(C)CC#CCN1CCCC1=O", 8.2),
    ("COC(=O)C1=CCCN(C)C1", 10.2),
    ("C[N+](C)(C)CCOC(N)=O", 10.8),
]
